Data credit: ChEMBL document CHEMBL1132623

Assay: half life towards biological agent (human plasma)
Assay type: ADME, organism-based
readout: half-life

**Q:** Recorded half-life of `CCOC(=O)/C=C/[C@H](C[C@@H]1CCNC1=O)NC(=O)[C@@H](CC(=O)[C@@H](NC(=O)c1cc(C)on1)C(C)C)Cc1ccc(F)cc1` , please.
**A:** > 1 h

====

Experiment: half life towards biological agent (dog plasma)
Assay type: ADME, organism-based, Canis lupus familiaris
readout: half-life

**Q:** Recorded half-life of `CCOC(=O)/C=C/[C@H](C[C@@H]1CCNC1=O)NC(=O)[C@@H](CC(=O)[C@@H](NC(=O)c1cc(C)on1)C(C)C)Cc1ccc(F)cc1` , please.
**A:** > 1 h

====

Assay: Increased percentage of formazan production in drug treated virus infected cells to equal 50% control drug free uninfected cells on serotype 14
readout: EC50 (nM)
Quick reminder: number only, in nM, skip the unit.

**Q:** Recorded EC50 of `CCOC(=O)/C=C/[C@H](CCC(N)=O)NC(=O)[C@H](Cc1ccccc1)NC(=O)[C@H](CC(C)C)NC(=O)OCc1ccccc1` , please.
**A:** 540

====

Test system: peptidase
Test: half life towards biological agent (peptidase)
Assay type: ADME
readout: half-life

**Q:** # query: half-life | item `CCOC(=O)/C=C/[C@H](C[C@@H]1CCNC1=O)NC(=O)[C@@H](CC(=O)[C@@H](NC(=O)c1cc(C)on1)C(C)C)Cc1ccc(F)cc1` | system: peptidase
**A:** > 1 h

====

Target: Human rhinovirus A protease (Human rhinovirus sp.)
Assay: Irreversible inhibition of human rhinovirus 3C protease
readout: K obs / 1 (M⁻¹ s⁻¹)
Quick reminder: number only, in M⁻¹ s⁻¹, skip the unit.

smiles.record | target.under.test | units.of.measure | K obs / 1
CCOC(=O)/C=C/[C@H](C[C@@H]1CCNC1=O)NC(=O)[C@@H](CC(=O)[C@@H](NC(=O)c1cc(C)on1)C(C)C)Cc1ccc(F)cc1 | Human rhinovirus A protease (Human rhinovirus sp.) | M⁻¹ s⁻¹ | 1.09e+06
CCOC(=O)/C=C/[C@H](C[C@@H]1CCNC1=O)NC(=O)[C@H](Cc1ccccc1)NC(=O)[C@@H](NC(=O)OCc1ccccc1)C(C)C | Human rhinovirus A protease (Human rhinovirus sp.) | M⁻¹ s⁻¹ | 500000
CCOC(=O)/C=C/[C@H](CN1CCNC1=O)NC(=O)[C@H](Cc1ccccc1)NC(=O)[C@H](CC(C)C)NC(=O)OCc1ccccc1 | Human rhinovirus A protease (Human rhinovirus sp.) | M⁻¹ s⁻¹ | 10900

Proceeding to the next compound to report its K obs / 1.
**Q:** Recorded K obs / 1 of `CCOC(=O)/C=C/[C@H](C[C@H]1CCNC1=O)NC(=O)[C@H](Cc1ccccc1)NC(=O)[C@H](CC(C)C)NC(=O)OCc1ccccc1` , please.
**A:** 18000

====

Measured K obs / 1 values are reported for all entries that follow.
Target: Human rhinovirus A protease (Human rhinovirus sp.) (UniProt Q4U254)
Sequence (Q4U254 as listed by the source): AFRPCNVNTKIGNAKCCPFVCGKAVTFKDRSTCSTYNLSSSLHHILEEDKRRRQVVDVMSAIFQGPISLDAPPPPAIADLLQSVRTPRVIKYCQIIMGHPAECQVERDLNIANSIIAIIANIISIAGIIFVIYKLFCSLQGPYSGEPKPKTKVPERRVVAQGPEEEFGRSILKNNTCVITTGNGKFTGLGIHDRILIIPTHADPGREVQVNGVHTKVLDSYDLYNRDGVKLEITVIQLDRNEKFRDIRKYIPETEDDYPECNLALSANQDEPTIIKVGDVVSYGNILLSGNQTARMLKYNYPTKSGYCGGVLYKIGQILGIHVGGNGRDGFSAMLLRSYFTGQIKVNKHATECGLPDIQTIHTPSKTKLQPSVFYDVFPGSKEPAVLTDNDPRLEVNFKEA
Assay: Irreversible inhibition of human rhinovirus 3C protease
Quick reminder: number only, in M⁻¹ s⁻¹, skip the unit.

smiles.record | target.under.test | K obs / 1 / M⁻¹ s⁻¹
CCOC(=O)/C=C/[C@H](C[C@@H]1CCNC1=O)NC(=O)[C@H](Cc1ccc(F)cc1)NC(=O)[C@@H](NC(=O)c1cc(C)on1)C(C)C | Human rhinovirus A protease (Human rhinovirus sp.) (UniProt Q4U254) | 1.5e+06
CCOC(=O)/C=C/[C@H](C[C@@H]1CCNC1=O)NC(=O)[C@H](Cc1ccc(F)cc1)NC(=O)[C@@H](NC(=O)c1cc(C)on1)C(C)(C)C | Human rhinovirus A protease (Human rhinovirus sp.) (UniProt Q4U254) | 980000
CCOC(=O)/C=C/[C@H](C[C@@H]1CCNC1=O)NC(=O)[C@H](Cc1ccccc1)NC(=O)[C@H](CC(C)C)NC(=O)OCc1ccccc1 | Human rhinovirus A protease (Human rhinovirus sp.) (UniProt Q4U254) | 257000
CCOC(=O)/C=C/[C@H](C[C@@H]1CCCNC1=O)NC(=O)[C@H](Cc1ccc(F)cc1)NC(=O)[C@@H](NC(=O)c1cc(C)on1)C(C)C | Human rhinovirus A protease (Human rhinovirus sp.) (UniProt Q4U254) | 900000
CCOC(=O)/C=C/[C@H](C[C@@H]1CCCNC1=O)NC(=O)[C@@H](CC(=O)[C@@H](NC(=O)c1cc(C)on1)C(C)C)Cc1ccc(F)cc1 | Human rhinovirus A protease (Human rhinovirus sp.) (UniProt Q4U254) | 500000

**Q:** Recorded K obs / 1 of `CCOC(=O)/C=C/[C@H](C[C@@H]1CCCNC1=O)NC(=O)[C@H](Cc1ccccc1)NC(=O)[C@H](CC(C)C)NC(=O)OCc1ccccc1` , please.
**A:** 239000
